- procedure summary: blocking HSF1-driven luciferase expression – cell-based, NIH3T3, luminescence, primary screen (AID 2098);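 also: luciferase reports HSF-1 transcriptional activity via heat shock element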
- cond: NIH3T3-HGL HSE-luciferase, MG132-induced, luminescence 8 h; screened at 7.5 µM (by protocol)
Among all 300,000 compounds or so, about 2,300 (0.77%) were called active.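 The calls were made as follows: active = more than half of replicate wells show activity change below -50%, luminescence cut by over half; inconclusive = some wells, but at most half, below -50%; inactive = no replicate well below -50%.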 Only a selection was taken, and actives are over-represented in it overall.
Outcomes: TRUE (active), FALSE (inactive)

{"molecule": "CCCOc1ccc(C(=O)CCC(=O)OC(C)C(=O)Nc2ccc(NC(C)=O)cc2)cc1 (stereo not drawn)", "label class": "FALSE"}
{"molecule": "CCOC(=O)N1CCN(C(c2cccnc2)c2ccc3cccnc3c2O)CC1 (stereo not drawn)", "label class": "FALSE"}
{"molecule": "CCc1cccc(NC(=O)COC(=O)C2CCN(c3ccc(C(F)(F)F)cn3)CC2)c1", "label class": "FALSE"}
{"molecule": "C=C1CCN([C@@H](Cc2ccccc2)C(=O)N2CCOCC2)S(=O)(=O)c2ccccc21", "label class": "FALSE"}
{"molecule": "Cc1cc(C(=O)OC(C)C(=O)NC2CCCCC2C)c(C)o1 (stereo not drawn)", "label class": "FALSE"}
{"molecule": "CCOC(=O)c1c(C)[nH]c(C(=O)OCC(=O)c2ccc(OC)cc2OC)c1C", "label class": "FALSE"}
{"molecule": "O=C(NCc1cccs1)C1CCN(S(=O)(=O)c2ccc(Cl)cc2)CC1", "label class": "FALSE"}
{"molecule": "Cc1ccn2c(=O)nc(SCC(=O)NCc3ccc(F)cc3)nc2c1", "label class": "FALSE"}
{"molecule": "CSc1nsc(NC(=O)Nc2ccccc2)n1", "label class": "FALSE"}
{"molecule": "COc1ccc([C@@H]2[C@@H]3C(=O)N(C(C)(C)C)C(=O)[C@@H]3[C@]3(Cc4ccccc4)C(=O)N(c4cccc(Br)c4)C(=O)N23)cc1", "label class": "FALSE"}
{"molecule": "CC1(C)S[C@@H]2[C@H](NC(=O)COc3ccccc3)C(=O)N2C1C(=O)OCc1ccccc1 (stereo partly drawn)", "label class": "FALSE"}
{"molecule": "CN(C)S(=O)(=O)c1ccc(N2CCCC2)c(C(=O)Nc2ccc(Br)cc2F)c1", "label class": "FALSE"}
{"molecule": "CCC1(c2ccccc2)NC(=O)N(CC(=O)c2ccc3c(c2)OCO3)C1=O (stereo not drawn)", "label class": "FALSE"}
{"molecule": "Cn1c(SCC(=O)c2ccccc2)ncc(C(=O)Nc2ccc(F)cc2)c1=O", "label class": "FALSE"}
{"molecule": "CCCc1cc(=O)[nH]c2nnc(SCC(=O)Nc3nnc(SCC)s3)n12", "label class": "FALSE"}
{"molecule": "COc1ccc(CNC(=O)C2CCCC2)cc1", "label class": "FALSE"}
{"molecule": "CCN1CCN(C(c2cccnc2)c2cc(Cl)c3cccnc3c2O)CC1 (stereo not drawn)", "label class": "TRUE"}
{"molecule": "Cc1cc(C(=O)COC(=O)CNC(=O)c2ccc(F)cc2)c(C)n1Cc1ccco1", "label class": "TRUE"}

// data source = PubChem BioAssay AID2098
